This section presents compounds with their documented SYK Tm-Shift values.
- target.under.test: UniProt P43405
- assay.comment: Tm-Shift assay (thermal melting, SYPRO Orange)
- Assay type: binding
- condition.notes: compound 10 μM, protein 2 μM; ΔTm obs vs protein without ligand; triplicate
Answer in °C, number only, no unit symbol.

Identify measured SYK Tm-Shift associated with CC(C)(C)c1cc(Nc2nc(N3CCC[C@H](N)C3)ncc2C(N)=O)cc(C(=O)N2CCCC2)c1 [Example 28]
0.5

Identify measured SYK Tm-Shift associated with CN(C)C(=O)c1cc(Nc2nc(N3CCC[C@H](N)C3)ncc2C(N)=O)cc(C(C)(C)C#N)c1 [Example 46]
0.5

Identify measured SYK Tm-Shift associated with NC(=O)c1cnc(N2CCC[C@H](N)C2)nc1Nc1cc(C(=O)N2CCOCC2)cc(-c2ccccc2)c1 [Example 21]
0.3

Identify measured SYK Tm-Shift associated with C[C@@H]1CN(C(=O)c2cccc(Nc3nc(N4CCC[C@H](N)C4)ncc3C(N)=O)c2)C[C@H](C)O1 [Example 39]
3.1

====

- target.under.test: SYK (Homo sapiens (Human), UniProt P43405)
- assay.comment: Tm-Shift assay (thermal melting, SYPRO Orange);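 further: recombinant His-tagged protein made in Sf9 insect cells by baculovirus, in HEPES NaCl buffer, heated stepwise with fluorescence recorded at every temperature step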
- Type: binding
endpoint: SYK Tm-Shift (°C)
Answer in °C, number only, no unit symbol.

>>> quantitative_readout("CC1(C)COCCN1C(=O)c1cccc(Nc2nc(N3CCC[C@H](N)C3)ncc2C(N)=O)c1")
2.0
>>> quantitative_readout("CN1CCN(C(=O)c2cccc(Nc3nc(N4CCC[C@H](N)C4)ncc3C(N)=O)c2)CC1=O.Cl")
3.4
>>> quantitative_readout("CC(C)(C)c1cc(Nc2nc(N3CCC[C@H](N)C3)ncc2C(N)=O)cc(S(=O)(=O)N2CCOCC2)c1")
0.9
>>> quantitative_readout("Cc1ccc(Nc2nc(N3CCC[C@H](N)C3)ncc2C(N)=O)cc1S(=O)(=O)N1CCCCC1")
3.3
>>> quantitative_readout("CN(C)S(=O)(=O)c1cc(Nc2nc(N3CCC[C@H](N)C3)ncc2C(N)=O)cc(C(C)(C)C)c1")
1.3
>>> quantitative_readout("CC(C)(C)c1cc(Nc2nc(N3C[C@H](N)C[C@H](N)C3)ncc2C(N)=O)cc(C(C)(C)C)c1.Cl.Cl")
"−0.5"

Identify measured SYK Tm-Shift associated with C[C@@H]1COC[C@H](C)N1C(=O)c1cccc(Nc2nc(N3CCC[C@H](N)C3)ncc2C(N)=O)c1.Cl
0.5

Identify measured SYK Tm-Shift associated with CN(C)CCN(C)C(=O)c1cccc(Nc2nc(N3CCC[C@H](N)C3)ncc2C(N)=O)c1
0.7

Identify measured SYK Tm-Shift associated with CS(=O)(=O)c1cc(Nc2nc(N3CCC[C@H](N)C3)ncc2C(N)=O)cc(S(C)(=O)=O)c1.Cl
0.2

Identify measured SYK Tm-Shift associated with CC(C)(O)C1CN(C(=O)c2cccc(Nc3nc(N4CCC[C@H](N)C4)ncc3C(N)=O)c2)C1.Cl
5.0

Identify measured SYK Tm-Shift associated with CN(C)C(=O)c1cc(Nc2nc(N3CCC[C@H](N)C3)ncc2C(N)=O)cc(C(C)(C)C)c1
0.4

Identify measured SYK Tm-Shift associated with COC[C@H]1CCCN1C(=O)c1cccc(Nc2nc(N3CCC[C@H](N)C3)ncc2C(N)=O)c1.Cl
1.4

====

- target.under.test: SYK (Homo sapiens (Human))
- assay.comment: Tm-Shift assay (thermal melting, SYPRO Orange)
- Format: binding
- condition.notes: compound 10 μM, protein 2 μM; ΔTm obs vs protein without ligand; triplicate
This section presents compounds with their documented SYK Tm-Shift values.
Answer in °C, number only, no unit symbol.

The examples below pair each entry with its known result.
>>> quantitative_readout("CC(C)(C)c1cc(Nc2nc(N3CCC[C@H](N)C3)ncc2C(N)=O)ccn1")
3.2
>>> quantitative_readout("CC(C)(C)c1cc(Nc2nc(N3CCC[C@H](N)C3)ncc2C(N)=O)cc(C(=O)N2CCOCC2)c1")
0.3
>>> quantitative_readout("CNS(=O)(=O)c1cc(Nc2nc(Cl)ncc2C(N)=O)cc(C(F)(F)F)c1")
0.3
>>> quantitative_readout("Cc1cccc(C)c1-c1cc(Nc2nc(N3CCC[C@H](N)C3)ncc2C(N)=O)cc(C(=O)N2CCOCC2)c1")
0.3
>>> quantitative_readout("CC(C)(C#N)c1cc(Nc2nc(N3CCC[C@H](N)C3)ncc2C(N)=O)cc(C(=O)N2CCOCC2)c1")
0.5
>>> quantitative_readout("Cc1ccccc1-c1cc(Nc2nc(N3CCC[C@H](N)C3)ncc2C(N)=O)cc(C(=O)N2CCOCC2)c1")
"−0.3"
>>> quantitative_readout("NC(=O)c1cnc(N2CCC[C@H](N)C2)nc1Nc1cccc(C(=O)N2CCCCC2)c1")
1.8
>>> quantitative_readout("CC(C)(O)c1cc(Nc2nc(N3CCC[C@H](N)C3)ncc2C(N)=O)cc(C(F)(F)F)c1")
3.4
>>> quantitative_readout("CC1(C)C(=O)Nc2ccc(Nc3nc(N4CCC[C@H](N)C4)ncc3C(N)=O)cc21")
0.3
>>> quantitative_readout("CC(C)(O)c1cc(Nc2nc(N3CCC[C@H](N)C3)ncc2C(N)=O)cc(C(C)(C)O)c1")
0.9

Identify measured SYK Tm-Shift associated with CN(C)C(=O)c1cccc(Nc2nc(N3CCC[C@H](N)C3)ncc2C(N)=O)c1
1.6

Identify measured SYK Tm-Shift associated with CC(C)(C)c1cc(Nc2nc(N3CCC[C@H](N)C3)ncc2C(N)=O)cc(S(=O)(=O)N2CCCC2)c1
0.7

Identify measured SYK Tm-Shift associated with NC(=O)c1cnc(N2CCC[C@H](N)C2)nc1Nc1cc(C(=O)N2CCOCC2)cc(C(F)(F)F)c1
1.2

Identify measured SYK Tm-Shift associated with NC(=O)c1cnc(N2CCC[C@H](N)C2)nc1Nc1cccc(C(=O)N2CCOCC2)c1
1.4

Identify measured SYK Tm-Shift associated with NC(=O)c1cnc(N2CCC[C@H](N)C2)nc1Nc1cc(C2CC2)cc(C2CC2)c1
8.2

Identify measured SYK Tm-Shift associated with COc1ccc2c(c1)CN(C(=O)c1cccc(Nc3nc(N4CCC[C@H](N)C4)ncc3C(N)=O)c1)C2
4.3
